Test system: M. tuberculosis H37Rv growth inhibition, glycerol-free medium
Assay: Mycobacterium tuberculosis H37Rv growth inhibition, glycerol free medium, confirmatory screen (AID 504645);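 also: bacteria grown one week before the viability dye was added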
measure name: IC50

Query: API: value(readout=IC50, system=M. tuberculosis H37Rv growth inhibition, glycerol-free medium) for record `Cc1ccc2ccc3ccc(C)nc3c2n1`
Response: 530 nM

Query: Now the compound COC(=O)C(C)Sc1ncnc2c1nnn2-c1ccc(F)cc1 (stereo unspecified)
Response: 2420 nM

Query: Now the compound `CCOC(=O)COn1c2c(c3c4no[n+]([O-])c4ccc31)CCCC2`
Response: 1850 nM

Query: Now the compound CC1CCCN(C(=O)c2ccc(CNc3c(N4CCCCC4)c(=O)c3=O)cc2)C1 (stereo unspecified)
Response: 2580 nM
